Sourced from ChEMBL document CHEMBL4196108

- experiment: Drug uptake in Sprague-Dawley rat brain at 50 mg/kg, po after 3 hrs by HPLC-MS/MS analysis
- Format: ADME, organism-based
- setup conditions: read-out: Drug uptake
readout name: concentration at 3 h
The reply must contain the numeric value and, after it, the unit.

Entry "COc1ccc(C(=O)c2ccc3c(ccn3Cc3ccc(C(=O)NO)cc3)c2)cc1" needs its concentration at 3 h filled in; supply it.
6.3 ng/g

---

- study system: Protein deacetylase HDAC6 (Homo sapiens, UniProt Q9UBN7)
- Sequence (Q9UBN7 whole entry): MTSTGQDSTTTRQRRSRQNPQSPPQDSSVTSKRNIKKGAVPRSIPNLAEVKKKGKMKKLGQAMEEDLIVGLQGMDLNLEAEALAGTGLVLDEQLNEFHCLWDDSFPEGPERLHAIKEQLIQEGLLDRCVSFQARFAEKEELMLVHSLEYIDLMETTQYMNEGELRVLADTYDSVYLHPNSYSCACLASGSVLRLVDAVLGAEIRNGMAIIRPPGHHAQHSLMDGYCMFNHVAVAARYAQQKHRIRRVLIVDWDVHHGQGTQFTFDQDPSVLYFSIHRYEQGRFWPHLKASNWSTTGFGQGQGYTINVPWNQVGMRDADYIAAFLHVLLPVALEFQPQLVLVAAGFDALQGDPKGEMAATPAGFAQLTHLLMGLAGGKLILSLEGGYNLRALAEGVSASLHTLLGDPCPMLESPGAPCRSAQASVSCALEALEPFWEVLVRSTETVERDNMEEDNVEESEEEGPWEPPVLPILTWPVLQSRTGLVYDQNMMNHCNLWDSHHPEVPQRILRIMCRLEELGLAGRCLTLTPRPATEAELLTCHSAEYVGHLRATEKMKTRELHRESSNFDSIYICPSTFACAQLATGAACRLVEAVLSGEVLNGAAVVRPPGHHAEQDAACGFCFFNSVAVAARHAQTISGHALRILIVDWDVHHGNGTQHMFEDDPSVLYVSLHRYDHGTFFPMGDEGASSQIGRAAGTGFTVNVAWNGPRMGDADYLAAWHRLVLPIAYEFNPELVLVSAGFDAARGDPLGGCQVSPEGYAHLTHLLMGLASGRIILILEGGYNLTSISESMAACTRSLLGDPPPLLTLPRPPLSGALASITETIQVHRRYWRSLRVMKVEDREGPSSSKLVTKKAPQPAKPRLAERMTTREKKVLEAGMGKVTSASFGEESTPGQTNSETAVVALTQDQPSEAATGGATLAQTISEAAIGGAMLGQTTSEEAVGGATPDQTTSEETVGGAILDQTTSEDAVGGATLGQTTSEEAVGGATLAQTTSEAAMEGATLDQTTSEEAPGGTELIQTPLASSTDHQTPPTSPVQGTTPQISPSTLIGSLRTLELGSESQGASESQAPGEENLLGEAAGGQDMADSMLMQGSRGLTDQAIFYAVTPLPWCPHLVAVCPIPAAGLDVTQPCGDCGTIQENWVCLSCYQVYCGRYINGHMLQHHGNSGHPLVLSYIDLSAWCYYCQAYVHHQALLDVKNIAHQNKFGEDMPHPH
pIC50: −log10 of the molar value.
Class Yes: pIC50 at least 7. Class No: pIC50 below 7.

State whether the measured pIC50 reaches 7, counting equality as reaching it, for "COc1cccc(C(=O)c2ccc3c(ccn3S(=O)(=O)c3cccc(/C=C/C(=O)NO)c3)c2)c1"
No

Hi team, for "O=C(/C=C/c1cccc(S(=O)(=O)n2ccc3cc(C(=O)c4ccc(F)cc4)ccc32)c1)NO" , is the recorded pIC50 at or above 7?
No

Reported pIC50 reaches at least 7 for "Cc1ccc(C(=O)c2ccc3c(ccn3Cc3ccc(C(=O)NO)cc3)c2)cc1" ?
Yes

pIC50 >= 7 for "COc1ccc(C(=O)c2ccc3c(ccn3Cc3ccc(C(=O)NO)cc3)c2)cc1OC" ?
Yes

Entry "COc1ccc(C(=O)c2ccc3c(ccn3S(=O)(=O)c3cccc(/C=C/C(=O)NO)c3)c2)cc1OC" : is its pIC50 no less than 7?
No

Determine whether this molecule has pIC50 no lower than 7: "COc1cc(C(=O)c2ccc3c(ccn3Cc3ccc(C(=O)NO)cc3)c2)cc(OC)c1OC"
No

# bool: pIC50 of "COc1ccc(C(=O)c2ccc3c(ccn3Cc3ccc(C(=O)NO)cc3)c2)cc1" >= 7
Yes

Check the entry "COc1cccc(C(=O)c2ccc3c(ccn3Cc3ccc(C(=O)NO)cc3)c2)c1" : does pIC50 equal or exceed 7?
Yes
